Listed variants paired with reported self-cleavage
B1: OR4K15 (parent)
chain: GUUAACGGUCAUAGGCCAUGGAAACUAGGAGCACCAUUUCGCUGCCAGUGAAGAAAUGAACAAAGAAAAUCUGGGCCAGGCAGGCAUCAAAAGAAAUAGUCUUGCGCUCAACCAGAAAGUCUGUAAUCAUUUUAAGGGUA

# Variants of: B1
# RUN_DESCRIPTION: self-cleavage, relative activity (ratio to wild type); higher = more cleavage; in vitro, sequencing; the parent is a self-cleaving ribozyme
Give a plain numeric answer without units written out.

U38C A98G: 0.96
A5G G73A: 0.21
A27G U87C: 1.02
U12C A23G: 0.76
A60G A95C: 1
A67G U72C: 0.32
U26A A51G: 1.15
A22U A91G: 0.68

Consider the additional variant presented here.
Assign self-cleavage to the following record: C6U U120C
0.33
